# System under test: HLA-A*26:01
# Test method notes: IEDB peptide-MHC binding, purified MHC/direct/fluorescence; filed as Kd, often an IC50 or EC50 that approximates it; bounds were set here for any values at or beyond the usual limits of such assays
# Condition notes: source organism: Salmonella enterica
pKd: −log10 of the molar value.
Property: pKd

1. RPQLGVGDV
≤ 4.70

---

Recorded Kd, one value per entry.
# System under test: HLA-B*27:05
# Test method notes: IEDB peptide-MHC binding, purified MHC/direct/fluorescence; filed as Kd, often an IC50 or EC50 that approximates it; bounds were set here for any values at or beyond the usual limits of such assays
# Condition notes: source organism: Vibrio cholerae
Property: Kd

1) SVMPAWQEK
≥ 20000 nM
2) GKFFAQAFL
1300 nM

---

# System under test: HLA-B*15:01
# Test method notes: IEDB peptide-MHC binding, purified MHC/direct/fluorescence; filed as Kd, often an IC50 or EC50 that approximates it; bounds were set here for any values at or beyond the usual limits of such assays
# Condition notes: source organism: Reston ebolavirus - Reston
Property: Kd

1. SKLRALLTL
≥ 20 µM

---

# System under test: HLA-B*51:01
# Test method notes: IEDB peptide-MHC binding, purified MHC/direct/fluorescence; filed as Kd, often an IC50 or EC50 that approximates it; bounds were set here for any values at or beyond the usual limits of such assays
# Condition notes: source organism: dengue virus type 2
Property: Kd

1. RERLSRMAI
≥ 20 µM

---

# System under test: HLA-A*02:16
# Test method notes: IEDB peptide-MHC binding, purified MHC/competitive/fluorescence; filed as Kd, often an IC50 or EC50 that approximates it; bounds were set here for any values at or beyond the usual limits of such assays
# Condition notes: source organism: Vibrio cholerae 2740-80
pKd: −log10 of the molar value.
Property: pKd

1) IFIRTIYYH
≤ 4.70

---

# System under test: HLA-B*40:02
# Test method notes: IEDB peptide-MHC binding, purified MHC/competitive/radioactivity; filed as Kd, often an IC50 or EC50 that approximates it; bounds were set here for any values at or beyond the usual limits of such assays
# Condition notes: source organism: Mammarenavirus lassaense
Recorded Kd, one value per entry.
Property: Kd (nM)

1) YDFNKLTAL
19.8
2) FESYVRPFVA
19.9
3) SEAQMSIQL
15.3
4) GDVELLGTT
5920
5) FDAAASGGL
3020

---

# System under test: HLA-A*02:01
# Test method notes: IEDB peptide-MHC binding, purified MHC/competitive/radioactivity; bounds were set here for any values at or beyond the usual limits of such assays
# Condition notes: source organism: Human immunodeficiency virus 1
Property: IC50 (nM)

1) SLYNAIATL
36

---

# System under test: HLA-A*02:19
# Test method notes: IEDB peptide-MHC binding, purified MHC/competitive/fluorescence; filed as Kd, often an IC50 or EC50 that approximates it; bounds were set here for any values at or beyond the usual limits of such assays
# Condition notes: source organism: Salmonella enterica subsp. enterica serovar Paratyphi A str. AKU_12601
Property: Kd

1. AMDTHLYFE
≥ 20 µM

---

# System under test: HLA-B*57:01
# Test method notes: IEDB peptide-MHC binding, purified MHC/direct/fluorescence; filed as Kd, often an IC50 or EC50 that approximates it; bounds were set here for any values at or beyond the usual limits of such assays
# Condition notes: source organism: Sudan virus - Boniface, Sudan,1976
Property: Kd

1) TMMRHRREL
≥ 20 µM
